- Protocol summary: Stability of the ginsenosides in rat plasma (QC samples)
- Type: in vitro ADME
- Condition context: extracted middle QC (142.4 Rb1, 62.5 Rb2, 48.8 Rd, 98.6 Re ng/mL); autosampler 4°C for 12 h
- Description: The standard stock solution was prepared in methanol with four ginsenosides at the final concentration of 1.14 mg/mL for Rb1, 0.10 mg/mL for Rb2, 0.78 mg/mL for Rd, and 1.58 mg/mL for Re. The working standard solution at required concentration was obtained by continuously diluting the stock solution. […] The stability of the four analytes was determined by exposing plasma samples to QC at three concentration levels in six replicates. […]
Property: Re (%) Postpreparation

CC(C)=CCC[C@](C)(O[C@@H]1O[C@H](CO[C@@H]2OC[C@H](O)[C@H](O)[C@H]2O)[C@@H](O)[C@H](O)[C@H]1O)[C@H]1CC[C@]2(C)[C@@H]1[C@H](O)C[C@@H]1[C@@]3(C)CC[C@H](O[C@@H]4O[C@H](CO)[C@@H](O)[C@H](O)[C@H]4O[C@@H]4O[C@H](CO)[C@@H](O)[C@H](O)[C@H]4O)C(C)(C)[C@@H]3CC[C@]12C ... 2.39

====

- Protocol summary: Stability of the ginsenosides in rat plasma (QC samples)
- Assay type: in vitro ADME
- Condition context: rat plasma, low QC (7.2 Rb1, 3.2 Rb2, 2.4 Rd, 5.0 Re ng/mL); three freeze-thaw cycles at −80°C
Property: Re (%) Freeze-thaw cycles

CC(C)=CCC[C@](C)(O[C@@H]1O[C@H](CO[C@@H]2O[C@H](CO)[C@@H](O)[C@H](O)[C@H]2O)[C@@H](O)[C@H](O)[C@H]1O)[C@H]1CC[C@]2(C)[C@@H]1[C@H](O)C[C@@H]1[C@@]3(C)CC[C@H](O[C@@H]4O[C@H](CO)[C@@H](O)[C@H](O)[C@H]4O[C@@H]4O[C@H](CO)[C@@H](O)[C@H](O)[C@H]4O)C(C)(C)[C@@H]3CC[C@]12C [Rb1] ... −6.90

====

- Protocol summary: Stability of the ginsenosides in rat plasma (QC samples)
- Type: in vitro ADME
- Condition context: rat plasma, low QC (7.2 Rb1, 3.2 Rb2, 2.4 Rd, 5.0 Re ng/mL); 1 month at −80°C
Property: Recovery (%) Short term

CC(C)=CCC[C@](C)(O[C@@H]1O[C@H](CO)[C@@H](O)[C@H](O)[C@H]1O)[C@H]1CC[C@]2(C)[C@@H]1[C@H](O)C[C@@H]1[C@@]3(C)CC[C@H](O[C@@H]4O[C@H](CO)[C@@H](O)[C@H](O)[C@H]4O[C@@H]4O[C@H](CO)[C@@H](O)[C@H](O)[C@H]4O)C(C)(C)[C@@H]3CC[C@]12C [Rd] ... 102.66
CC(C)=CCC[C@](C)(O[C@@H]1O[C@H](CO[C@@H]2OC[C@H](O)[C@H](O)[C@H]2O)[C@@H](O)[C@H](O)[C@H]1O)[C@H]1CC[C@]2(C)[C@@H]1[C@H](O)C[C@@H]1[C@@]3(C)CC[C@H](O[C@@H]4O[C@H](CO)[C@@H](O)[C@H](O)[C@H]4O[C@@H]4O[C@H](CO)[C@@H](O)[C@H](O)[C@H]4O)C(C)(C)[C@@H]3CC[C@]12C [Rb2] ... 93.67
CC(C)=CCC[C@](C)(O[C@@H]1O[C@H](CO)[C@@H](O)[C@H](O)[C@H]1O)[C@H]1CC[C@]2(C)[C@@H]1[C@H](O)C[C@@H]1[C@@]3(C)CC[C@H](O)C(C)(C)[C@@H]3[C@@H](O[C@@H]3O[C@H](CO)[C@@H](O)[C@H](O)[C@H]3O[C@@H]3O[C@@H](C)[C@H](O)[C@@H](O)[C@H]3O)C[C@]12C [Re] ... 97.30
CC(C)=CCC[C@](C)(O[C@@H]1O[C@H](CO[C@@H]2O[C@H](CO)[C@@H](O)[C@H](O)[C@H]2O)[C@@H](O)[C@H](O)[C@H]1O)[C@H]1CC[C@]2(C)[C@@H]1[C@H](O)C[C@@H]1[C@@]3(C)CC[C@H](O[C@@H]4O[C@H](CO)[C@@H](O)[C@H](O)[C@H]4O[C@@H]4O[C@H](CO)[C@@H](O)[C@H](O)[C@H]4O)C(C)(C)[C@@H]3CC[C@]12C [Rb1] ... 96.32

All figures here come from paper PMC6875038.
